- Tested on: HOP-18
- test-method-notes: NCI tumour cell line growth inhibition, 48 h
Activity calls are given as the source filed them. Cut-off read from the data, not from the text of the source: active = GI50 up to about 1.1 µM and inactive = higher.
// one of active, inactive, no free text

Solved cases below.
1) C#CCNC(=O)CCC(N)C(=O)O (centres undefined): inactive
2) CC(=O)OCCOCNC(=S)N/N=C(\C)c1ccco1: inactive
3) O=C1C[C@H](c2ccc(O)c(O)c2)Oc2cc(O)cc(O)c21: inactive
4) O/N=C1/C(=C/c2ccc(Oc3ccccc3)cc2)CCCC1C(NO)c1ccc(Oc2ccccc2)cc1 (centres undefined): inactive
5) COC1=C(C)C(=O)C2=C(C1=O)[C@@H]1[C@@H]3Cc4c(OC(=O)CO)c(C)c(OC)c(O)c4[C@H](CNC(=O)C(C)=O)N3[C@@H](C#N)[C@H](C2)N1C: active
6) O=C(O)c1ccccc1[Se][Se]c1ccccc1C(=O)O: inactive
7) COc1ccc(C(c2c(O)c3ccccc3n(-c3ccccc3)c2=O)c2c(O)c3ccccc3n(-c3ccccc3)c2=O)cc1: inactive
8) O=C1CC[C@@H](NC(=O)Cc2ccccc2)C(=O)N1: inactive

Here's the next entry for you.
Per the records of this test, what outcome belongs to COc1cc(C2c3cc4c(cc3[C@H](NS(C)(=O)=O)C3COC(=O)[C@H]23)OCO4)cc(OC)c1OC (some centres undefined) ?
inactive

----------
- Test system: SNB-19
- test-method-notes: NCI tumour cell line growth inhibition, 48 h
Calls of active or inactive are those of the source. Cut-off read from the data, not from the text of the source: active = GI50 up to about 1.1 µM and inactive = higher.
Let's look at some compounds and their measured GI50.

These solved cases illustrate the format of a correct answer.
1. O=C1N=C(Nc2ccccc2Cl)SC1C(=O)Nc1ccc([N+](=O)[O-])cc1[N+](=O)[O-] (centres undefined): > 100 µM (inactive)
2. COC(=O)C1=C(C)N2CCSC2(C)C(C(=O)OC)C1c1cccc(Cl)c1 (centres undefined): 16.6 µM (inactive)
3. O=C1NC2(CCCC2)/C(=N\O)C12CCCC2: > 100 µM (inactive)

Check SNB-19 data and give GI50 for CC(=O)/N=C1\NC(=O)/C(=C/c2ccccc2Cl)N1C .
> 100 µM (inactive)

----------
Let's look at some compounds and their measured GI50.
- System: TK-10
- test-method-notes: NCI tumour cell line growth inhibition, 48 h
Activity calls are given as the source filed them. No stated cut-off is given here; in the data, active = GI50 up to about 1.1 µM and inactive = higher.

1. COc1ccc(-c2nc(N)c(C#N)c3c2CCSc2ccc(C)cc2-3)cc1OC: 26.4 µM (inactive)
2. CN(C)c1ccc(/C=C2\N=C(NN)NC2=O)cc1: > 100 µM (inactive)
3. CCOc1ccc(NCC2CC/C(=C\c3ccccc3OC)C2=O)cc1 (stereo unspecified): 13.8 µM (inactive)
4. BrCC[N+]12CC[N+](CCBr)(CC1)C2: > 100 µM (inactive)
5. O=C1CC(C(O)(C(F)(F)F)C(F)(F)Cl)CCC1C(O)(C(F)(F)F)C(F)(F)Cl (stereo unspecified): > 10 µM (inactive)

Report measured GI50; entry is [O-][S+]1c2ccccc2N=C(c2cccc3ccccc23)CC1c1cccc2ccccc12 (stereo unspecified)
31.2 µM (inactive)

Report measured GI50; entry is COc1cc(C2c3cc4c(cc3[C@@H](Nc3ccc(F)cc3)C3CO[C@@H](O)[C@H]23)OCO4)cc(OC)c1O (stereo partly specified)
12.3 µM (inactive)

Report measured GI50; entry is CC(=O)OCc1cccc(O)c1C(=O)CCC=C(C)C
> 100 µM (inactive)

Report measured GI50; entry is CC(=O)C1=CN=C2C(=O)N(c3ccccc3)N(C)C12C (stereo unspecified)
49.9 µM (inactive)

Report measured GI50; entry is O=C1CC[C@@H](NC(=O)Cc2ccccc2)C(=O)N1
> 100 µM (inactive)

Report measured GI50; entry is O=C(/C=C/c1ccsc1)c1ccc(Cl)cc1
> 100 µM (inactive)
